This collection of values is drawn from patent US8871753B2.

measured-on: human JAK1 (a.a. 837-1142) (Homo sapiens)
Construct: human JAK1 (a.a. 837-1142); His tag (N); made in house; host or cells: insect cells (baculovirus)
Sequence (P23458 849-1154): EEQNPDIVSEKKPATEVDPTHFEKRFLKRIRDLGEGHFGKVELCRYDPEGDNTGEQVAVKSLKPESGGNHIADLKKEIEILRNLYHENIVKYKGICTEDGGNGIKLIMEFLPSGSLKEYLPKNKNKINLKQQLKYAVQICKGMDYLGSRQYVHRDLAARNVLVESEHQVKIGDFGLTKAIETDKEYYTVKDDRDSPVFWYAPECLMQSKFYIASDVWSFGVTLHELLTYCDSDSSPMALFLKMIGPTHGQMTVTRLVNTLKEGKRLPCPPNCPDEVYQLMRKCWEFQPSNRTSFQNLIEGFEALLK
experiment-description: In vitro JAK kinase assay (HTRF, phosphorylation of a biotinylated peptide), JAK1
Type: biochemical
run-parameters: method AA1 (90 μM ATP) or AA2 (1000 μM ATP), not stated per value; read-out: JAK1 IC50
Structures can show the parent of a compound that is named as a salt.
Listed here: items and their measured log10 of IC50.
Each number you see is log10 of IC50, and the unit inside the log is nM.

Below, each entry is followed by its recorded log10 of IC50 result.
O=C(CC1CCN(C(=O)c2cccnc2)CC1)Nc1ccc2cc1CCc1cccc(c1)Nc1ncc(Cl)c(n1)N2 [Example A184, bis(trifluoroacetate)]	1.63
N#Cc1ccc(S(=O)(=O)N2CCC(CC(=O)Nc3ccc4cc3CCc3cccc(c3)Nc3ncc(Cl)c(n3)N4)CC2)cc1 [Example A209, trifluoroacetate]	1.78
O=C(Nc1ccc2cc1CCc1cccc(c1)Nc1ncc(Cl)c(n1)N2)C1CCN(C(=S)Nc2ccccc2)CC1 [Example A43, trifluoroacetate]	0.00
N#Cc1c(Cl)cccc1N1CCC(CC(=O)Nc2ccc3cc2CCc2cncc(c2)Nc2ncc(Cl)c(n2)N3)CC1 [Example A222, tris(trifluoroacetate)]	0.51
Cc1cc(C(=O)N2CCC(CC(=O)Nc3ccc4cc3CCc3cccc(c3)Nc3ncc(Cl)c(n3)N4)CC2)no1 [Example A86, trifluoroacetate]	-0.10

GET /values?item= N#Cc1ccc(N2CCC(CC(=O)Nc3ccc4cc3CCc3cncc(c3)Nc3ncc(Cl)c(n3)N4)CC2)nc1 [Example A179, tris(trifluoroacetate)] &system= human JAK1 (a.a. 837-1142) (Homo sapiens) returns log10 of IC50: 1.26

GET /values?item= COc1cc2cc(c1)Nc1nc(ncc1Cl)Nc1cccc(c1)CC2 [Example A21, trifluoroacetate] &system= human JAK1 (a.a. 837-1142) (Homo sapiens) returns log10 of IC50: 1.76

GET /values?item= O=C(Nc1ccc2cc1CCc1cccc(c1)Nc1ncc(Cl)c(n1)N2)C1CCNCC1 [Example A28, bis(trifluoroacetate)] &system= human JAK1 (a.a. 837-1142) (Homo sapiens) returns log10 of IC50: 1.75

GET /values?item= N#Cc1ccccc1S(=O)(=O)N1CCC(CC(=O)Nc2ccc3cc2CCc2cncc(c2)Nc2ncc(Cl)c(n2)N3)CC1 [Example A198, bis(trifluoroacetate)] &system= human JAK1 (a.a. 837-1142) (Homo sapiens) returns log10 of IC50: -0.40

###

Listed here: items and their measured ALK % of inhibition at a concentration of 500 nM or 1 mM.
measured-on: Recombinant Human Anaplastic Lymphoma Kinase (Homo sapiens, UniProt Q9UM73)
Construct: purchased Invitrogen, Carlsbad, Calif
Sequence (Q9UM73 19-1620): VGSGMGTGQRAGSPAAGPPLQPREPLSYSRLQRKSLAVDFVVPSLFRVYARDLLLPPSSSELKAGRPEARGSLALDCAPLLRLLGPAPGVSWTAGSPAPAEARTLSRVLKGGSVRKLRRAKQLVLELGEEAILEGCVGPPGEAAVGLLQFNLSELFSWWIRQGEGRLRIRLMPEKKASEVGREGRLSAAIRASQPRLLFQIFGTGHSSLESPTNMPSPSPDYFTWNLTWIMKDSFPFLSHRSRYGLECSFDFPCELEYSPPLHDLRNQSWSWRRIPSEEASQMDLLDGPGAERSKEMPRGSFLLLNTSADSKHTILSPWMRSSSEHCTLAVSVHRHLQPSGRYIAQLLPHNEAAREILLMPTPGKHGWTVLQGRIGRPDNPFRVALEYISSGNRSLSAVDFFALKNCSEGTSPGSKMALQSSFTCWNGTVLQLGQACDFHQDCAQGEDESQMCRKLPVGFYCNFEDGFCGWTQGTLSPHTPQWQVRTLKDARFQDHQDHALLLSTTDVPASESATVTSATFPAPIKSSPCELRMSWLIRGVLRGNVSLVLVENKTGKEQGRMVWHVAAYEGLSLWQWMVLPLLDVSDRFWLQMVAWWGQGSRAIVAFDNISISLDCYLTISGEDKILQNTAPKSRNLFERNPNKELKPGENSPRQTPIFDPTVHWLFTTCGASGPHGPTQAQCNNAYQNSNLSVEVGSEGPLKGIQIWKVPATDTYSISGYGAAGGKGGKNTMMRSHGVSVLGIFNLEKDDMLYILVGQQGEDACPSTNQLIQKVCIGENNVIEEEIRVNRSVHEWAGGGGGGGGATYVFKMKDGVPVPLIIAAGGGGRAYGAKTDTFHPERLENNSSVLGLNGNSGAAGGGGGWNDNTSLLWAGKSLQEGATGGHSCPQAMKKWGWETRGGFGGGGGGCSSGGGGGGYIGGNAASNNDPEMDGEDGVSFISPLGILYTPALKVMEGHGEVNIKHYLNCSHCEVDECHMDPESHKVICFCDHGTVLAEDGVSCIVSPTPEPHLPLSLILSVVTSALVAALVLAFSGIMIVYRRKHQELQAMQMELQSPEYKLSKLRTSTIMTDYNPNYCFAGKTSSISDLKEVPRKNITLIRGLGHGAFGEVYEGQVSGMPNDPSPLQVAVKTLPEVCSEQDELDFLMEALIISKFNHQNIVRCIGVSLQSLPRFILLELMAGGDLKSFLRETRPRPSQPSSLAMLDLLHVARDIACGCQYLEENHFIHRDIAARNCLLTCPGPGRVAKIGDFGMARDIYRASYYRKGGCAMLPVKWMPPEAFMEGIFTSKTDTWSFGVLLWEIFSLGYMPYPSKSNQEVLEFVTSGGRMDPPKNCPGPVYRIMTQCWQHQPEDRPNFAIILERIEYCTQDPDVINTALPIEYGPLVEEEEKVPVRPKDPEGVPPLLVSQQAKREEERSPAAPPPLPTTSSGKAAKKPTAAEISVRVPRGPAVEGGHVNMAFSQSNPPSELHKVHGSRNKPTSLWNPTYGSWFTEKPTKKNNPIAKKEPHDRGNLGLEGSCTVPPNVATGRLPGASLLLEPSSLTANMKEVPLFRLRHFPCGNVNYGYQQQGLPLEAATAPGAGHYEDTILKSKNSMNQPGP
experiment-description: ALK HTRF kinase assay
Assay type: biochemical
run-parameters: compound at a concentration of 500 nM or 1 mM (not specified); cells shown as percentage
Structures can show the parent of a compound that is named as a salt.
Value expressed in %; do not type the unit.

Below, each entry is followed by its recorded ALK % of inhibition at a concentration of 500 nM or 1 mM result.
CC(C)(C)OC(=O)NCCNC(=O)Nc1ccc2cc1CCc1cccc(c1)Nc1ncc(Cl)c(n1)N2 [Example B185]	12
CS(=O)(=O)N1CC[C@@H](NC(=O)Nc2ccc3cc2CCc2cccc(c2)Nc2ncc(Cl)c(n2)N3)C1 [Example B178, trifluoroacetate]	24
N#Cc1ccccc1N1CCN(C(=O)Nc2ccc3cc2CCc2cncc(c2)Nc2ncc(Cl)c(n2)N3)CC1 [Example B300, tris(trifluoroacetate)]	77
CS(=O)(=O)N1CCC(NC(=O)Nc2ccc3cc2CCc2cccc(c2)Nc2ncc(Cl)c(n2)N3)CC1 [Example B182, trifluoroacetate]	29
Cc1ccnc(Nc2ccc3cc2CCc2cccc(c2)Nc2ncc(Cl)c(n2)N3)n1 [Example B276, bis(trifluoroacetate)]	22
CN1CCOc2cc(S(=O)(=O)Nc3ccc4cc3CCc3cccc(c3)Nc3ncc(Cl)c(n3)N4)ccc21 [Example B165, trifluoroacetate]	10
O=C(Nc1ccc2cc1CCc1cccc(c1)Nc1ncc(Cl)c(n1)N2)N[C@H]1CCN(Cc2ccccc2)C1 [Example B173, bis(trifluoroacetate)]	14
Cc1occc1NC(=O)Nc1ccc2cc1CCc1cccc(c1)Nc1ncc(Cl)c(n1)N2 [Example B118, trifluoroacetate]	22

Entry O=C(Nc1ccc2cc1CCc1cccc(c1)Nc1ncc(Cl)c(n1)N2)N[C@H]1CCN(C(=O)c2nccs2)C1 [Example B231, trifluoroacetate] , ALK % of inhibition at a concentration of 500 nM or 1 mM reported as 8.1

Entry CCNC(=O)Nc1ccc2cc1CCc1cccc(c1)Nc1ncc(Cl)c(n1)N2 [Example B115, trifluoroacetate] , ALK % of inhibition at a concentration of 500 nM or 1 mM reported as 23

###

Listed here: items and their measured pIC50.
measured-on: human JAK2 (a.a. 828-1132) (Homo sapiens)
Construct: JAK2 (a.a. 828-1132); His tag (N); made in house; host or cells: insect cells (baculovirus)
Sequence (O60674 828-1132): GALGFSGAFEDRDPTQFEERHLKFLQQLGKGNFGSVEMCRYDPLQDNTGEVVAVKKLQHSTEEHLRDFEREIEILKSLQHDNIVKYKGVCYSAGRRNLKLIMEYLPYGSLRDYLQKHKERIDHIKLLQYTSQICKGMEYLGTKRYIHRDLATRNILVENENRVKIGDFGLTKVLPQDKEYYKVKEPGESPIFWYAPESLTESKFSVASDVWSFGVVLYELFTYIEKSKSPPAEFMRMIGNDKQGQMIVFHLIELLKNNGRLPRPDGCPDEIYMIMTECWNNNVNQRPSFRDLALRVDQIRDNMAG
experiment-description: In vitro JAK kinase assay (HTRF, phosphorylation of a biotinylated peptide), JAK2
Format: biochemical
run-parameters: Table D1
Structures can show the parent of a compound that is named as a salt.
Quick note: pIC50 means taking -log10 of the concentration in moles per liter.

Clc1cnc2nc1Nc1cccc(c1)CCOc1cccc(c1)N2 [Example D5, trifluoroacetate]	7.82
CC(=O)N1CCC[C@@H](CC(=O)Nc2ccc3cc2CCc2cccc(c2)Nc2ncc(Cl)c(n2)N3)C1 [Example D200, trifluoroacetate]	8.03
N#Cc1ccc(NC(=O)N2CCN(c3ccc4cc3CCc3cccc(c3)Nc3ncc(Cl)c(n3)N4)CC2)cc1 [Example D93, bis(trifluoroacetate)]	7.85
Clc1cnc2nc1Nc1cccc(c1)SCc1cccc(c1)N2 [Example D1, trifluoroacetate]	8.02
CN1CCN(Cc2cc3cc(c2)Nc2ncc(Cl)c(n2)Nc2cccc(c2)OCC3)CC1 [Example D190, tris(trifluoroacetate)]	9.05

We now examine a further compound.
Entry Clc1cnc2nc1Nc1cccc(c1)NCc1cccc(c1)N2 [Example D16, bis(trifluoroacetate)] , pIC50 reported as 6.95

###

measured-on: human JAK3 (a.a. 781-1124) (Homo sapiens)
Construct: JAK3 (a.a. 781-1124); His tag (N); made in house; host or cells: insect cells (baculovirus)
experiment-description: In vitro JAK kinase assay (HTRF, phosphorylation of a biotinylated peptide), JAK3
Type: biochemical
run-parameters: Table D1
Where a name gives a salt, the structure may show the parent alone.
Listed here: items and their measured pIC50.
Quick note: pIC50 means taking -log10 of the concentration in moles per liter.

Below, each entry is followed by its recorded pIC50 result.
Clc1cnc2nc1Nc1cccc(c1)OCCNc1cccc(c1)N2 [Example D70, bis(trifluoroacetate)]	8.09
Clc1cnc2nc1Nc1cccc(c1)NCCOc1cccc(c1)N2 [Example D72, bis(trifluoroacetate)]	8.13
Clc1cnc2nc1Nc1cccc(c1)CCCNc1cccc(c1)N2 [Example D77, bis(trifluoroacetate)]	7.96
O=C(Nc1cc2cc(c1)OCCSc1cccc(c1)Nc1nc(ncc1Cl)N2)c1ccc2occc2c1 [Example D61, trifluoroacetate]	7.39
O=C(C[C@H]1CCCN(C(=O)c2ccccc2)C1)Nc1ccc2cc1CCc1cccc(c1)Nc1ncc(Cl)c(n1)N2 [Example D203, trifluoroacetate]	7.07
O=C(NCc1ccccc1)c1cc2cc(c1)OCCSc1cccc(c1)Nc1nc(ncc1Cl)N2 [Example D51, trifluoroacetate]	7.85

We now examine a further compound.
Entry O=C(C[C@H]1CCCN(C(=O)c2ccccc2)C1)Nc1ccc2cc1CCc1cncc(c1)Nc1ncc(Cl)c(n1)N2 [Example D207, bis(trifluoroacetate)] , pIC50 reported as 6.96

###

measured-on: human JAK3 (a.a. 781-1124) (Homo sapiens, UniProt P52333)
Construct: JAK3 (a.a. 781-1124); His tag (N); made in house; host or cells: insect cells (baculovirus)
Sequence (P52333 781-1124): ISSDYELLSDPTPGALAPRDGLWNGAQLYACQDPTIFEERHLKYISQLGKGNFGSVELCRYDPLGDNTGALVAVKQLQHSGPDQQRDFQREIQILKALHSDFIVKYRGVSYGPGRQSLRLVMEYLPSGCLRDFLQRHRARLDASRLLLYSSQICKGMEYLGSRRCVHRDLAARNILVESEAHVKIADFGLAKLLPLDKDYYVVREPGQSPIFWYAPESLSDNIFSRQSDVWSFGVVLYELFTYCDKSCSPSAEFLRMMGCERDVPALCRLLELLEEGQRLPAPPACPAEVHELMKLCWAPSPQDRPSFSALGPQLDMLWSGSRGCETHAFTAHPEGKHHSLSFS
experiment-description: In vitro JAK kinase assay (HTRF, phosphorylation of a biotinylated peptide), JAK3
Format: biochemical
run-parameters: Table D1
Where a name gives a salt, the structure may show the parent alone.
property: IC50

Below, each entry is followed by its recorded IC50 result.
O=C(c1cnccn1)N1CCC(CCOc2ccc3cc2CCc2cncc(c2)Nc2ncc(Cl)c(n2)N3)CC1 [Example D177, tris(trifluoroacetate)]	> 0.4 µM
Clc1cnc2nc1Nc1ccc(OCC3CCNCC3)c(c1)CCc1cncc(c1)N2 [Example D225, tris(trifluoroacetate)]	> 0.4 µM
O=C(CC1CN(C(=O)c2cn[nH]c2)C1)Nc1ccc2cc1CCc1cncc(c1)Nc1ncc(Cl)c(n1)N2 [Example D149, bis(trifluoroacetate)]	> 1 µM
O=S(=O)(Nc1cc2cc(c1)OCCSc1cccc(c1)Nc1nc(ncc1Cl)N2)c1ccccc1 [Example D68, trifluoroacetate]	0.036 µM

Entry Clc1cnc2nc1Nc1cccc(c1)NCCCc1cccc(c1)N2 [Example D75, bis(trifluoroacetate)] , IC50 reported as 0.08 µM

Entry O=C(COc1ccc2cc1CCc1cncc(c1)Nc1ncc(Cl)c(n1)N2)N1CCN(c2cccc(C(F)(F)F)n2)CC1 [Example D248, tris(trifluoroacetate)] , IC50 reported as > 0.4 µM
